Each entry below carries its reported IC50.
- subject of test: factor VIIa (Homo sapiens, UniProt P08709)
- Sequence (P08709 213-466 limits assumed): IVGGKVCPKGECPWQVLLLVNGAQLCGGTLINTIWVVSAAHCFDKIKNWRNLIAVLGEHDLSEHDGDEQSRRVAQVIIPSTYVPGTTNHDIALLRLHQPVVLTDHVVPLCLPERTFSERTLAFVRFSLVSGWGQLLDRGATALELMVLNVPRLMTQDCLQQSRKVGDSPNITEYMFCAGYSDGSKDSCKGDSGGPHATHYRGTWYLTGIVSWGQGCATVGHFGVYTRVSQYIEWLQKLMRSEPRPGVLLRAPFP
- Sequence (P08709 61-212 limits assumed): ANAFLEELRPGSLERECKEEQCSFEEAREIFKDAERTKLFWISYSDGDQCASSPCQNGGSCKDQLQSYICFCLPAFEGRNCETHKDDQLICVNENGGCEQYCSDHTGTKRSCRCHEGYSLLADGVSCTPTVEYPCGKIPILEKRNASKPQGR
- test description: Inhibition of factor VIIa
- Format: biochemical
value type: IC50 (nM)

>>> reported_measurement("CCCC(Oc1cccc(C(=N)N)c1)C(=O)Nc1ccc(N2CCCC2=O)cc1 (stereo not drawn)")
83
>>> reported_measurement("CCCC(Oc1cccc(C(=N)N)c1)C(=O)Nc1ccc(N2CCOCC2)cc1 (stereo not drawn)")
490
>>> reported_measurement("N=C(N)c1cccc(OC(C(=O)Nc2ccc(N3CCCC3=O)cc2)c2ccccc2)c1 (stereo not drawn)")
39
